test system: biotinyl-Leu-oxazolone; assay: self-aminoacylation, catalytic enhancement (BLO) (fold over background); higher = more active; k-Seq, kA / k0A0; sequences stand for … in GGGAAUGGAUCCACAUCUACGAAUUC…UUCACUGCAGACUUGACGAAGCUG
Variants at the floor of the assay were thinned out.
Listed below: self-aminoacylation values for each entry.
readout type: self-aminoacylation

{"columns": ["macromolecule sequence", "numeric readout"],
 "data": [
  ["AUUACCCUGGUCAUAGGGUGA [Fam2.1 aminoacylation ribozyme variant]", 7.73],
  ["AUUCACCUAGGCCAUCGGGUA [Fam2.2 aminoacylation ribozyme variant]", 3.81],
  ["UUUCACCUAGGGCAUCGGGUG [Fam2.2 aminoacylation ribozyme variant]", 3.49],
  ["AUUACCCUGAUCAUCGAAUGA [Fam2.1 aminoacylation ribozyme variant]", 0.898],
  ["CUACUUCAAACAAGCGGUUUG [Fam1A.1 aminoacylation ribozyme variant]", 0.705]
]}

###

Listed below: self-aminoacylation values for each entry.
system: biotinyl-Met-oxazolone; assay: self-aminoacylation, catalytic enhancement (BMO) (fold over background); higher = more active; k-Seq, kA / k0A0; sequences stand for … in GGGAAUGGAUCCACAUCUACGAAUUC…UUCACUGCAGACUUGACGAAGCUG
Fewer inactive variants are shown than the library holds.

{"columns": ["macromolecule sequence", "self-aminoacylation"],
 "data": [
  ["AUUACCCUCGUCAUCUAGUGA [Fam2.1 aminoacylation ribozyme variant]", 3.26],
  ["AAGUUUGCUACUAGUCGCAAC [Fam3.1 aminoacylation ribozyme variant]", 0.845],
  ["AUUACCAUGGUCAUCUAGUGA [Fam2.1 aminoacylation ribozyme variant]", 11.1],
  ["AUUCACCGAGGUAAUCGGGUG [Fam2.2 aminoacylation ribozyme variant]", 8.27],
  ["CUACUUGAGACAAUCGGUCUG [Fam1A.1 aminoacylation ribozyme variant]", 0.94],
  ["AUUACCCUGAUCAUCGGGUGA [Fam2.1 aminoacylation ribozyme variant]", 9.51],
  ["UAGUUUGCCAAUAGUCGCAAG [Fam3.1 aminoacylation ribozyme variant]", 1.77],
  ["CCACCCUUCAAGAAAUCGGUC [Fam1B.1 aminoacylation ribozyme variant]", 1.16],
  ["CUACUUCAAACAUUAGGUCUG [Fam1A.1 aminoacylation ribozyme variant]", 0.617],
  ["AAGUUAGCUUAUAGUCGCAAG [Fam3.1 aminoacylation ribozyme variant]", 1.43],
  ["AUUACCCGGGUCAUCGAGUAA [Fam2.1 aminoacylation ribozyme variant]", 1.91],
  ["GAGUUUGCUAAUUGUCGCAAG [Fam3.1 aminoacylation ribozyme variant]", 1.34],
  ["AUUAACCUUGGUCAUCGGGUG [Fam2.2 aminoacylation ribozyme variant]", 6.37],
  ["CCACACUUCAACCUAUCGGUC [Fam1B.1 aminoacylation ribozyme variant]", 0.87],
  ["AUUACUCUGGUCAUCCAGUGA [Fam2.1 aminoacylation ribozyme variant]", 5.01],
  ["AAGUUAGCUAAUAGCCGCAAG [Fam3.1 aminoacylation ribozyme variant]", 0.903],
  ["AAUAUUGCUAAUAGUCGCAAG [Fam3.1 aminoacylation ribozyme variant]", 1.68],
  ["AGUCACCUAGGUCAUCGGCUG [Fam2.2 aminoacylation ribozyme variant]", 2.18]
]}

###

test system: biotinyl-Trp-oxazolone; assay: self-aminoacylation, catalytic enhancement (BWO) (fold over background); higher = more active; k-Seq, kA / k0A0; sequences stand for … in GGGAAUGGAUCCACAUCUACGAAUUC…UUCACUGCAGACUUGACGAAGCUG
Variants at the floor of the assay were thinned out.
Listed below: self-aminoacylation values for each entry.

{"columns": ["macromolecule sequence", "self-aminoacylation"],
 "data": [
  ["CUACUUCAAACAACCGGUAUG [Fam1A.1 aminoacylation ribozyme variant]", 0.873],
  ["CAACUUCAAACAAUCGGACUG [Fam1A.1 aminoacylation ribozyme variant]", 10.6],
  ["CUACUUCAAACAAUGGGUCAG [Fam1A.1 aminoacylation ribozyme variant]", 0.5],
  ["AAGUUUGCUAAUAGACACAAG [Fam3.1 aminoacylation ribozyme variant]", 0.797],
  ["AUUAACCUAAGUCAUCGGGUG [Fam2.2 aminoacylation ribozyme variant]", 7.95],
  ["AUUGACCUAGGUCAUCGGGGG [Fam2.2 aminoacylation ribozyme variant]", 3.93],
  ["UCACACUUGAAGCAAUCGGUC [Fam1B.1 aminoacylation ribozyme variant]", 0.486],
  ["AAGUUCGCUAAUUGUCGCAAG [Fam3.1 aminoacylation ribozyme variant]", 1.51],
  ["CCACACUUCAAUCAAUCCGUC [Fam1B.1 aminoacylation ribozyme variant]", 0.611],
  ["CACUUUGCUAAUAGUCGCAAG [Fam3.1 aminoacylation ribozyme variant]", 2.22],
  ["CUACACUUCAAGCAAUCGGCC [Fam1B.1 aminoacylation ribozyme variant]", 5.03],
  ["CUACACUUCAAGCACUCGGUC [Fam1B.1 aminoacylation ribozyme variant]", 0.614],
  ["CUACUUUAAGCAAUCGGUCUG [Fam1A.1 aminoacylation ribozyme variant]", 0.51],
  ["CCACAAUUCAAACAAUCGGUC [Fam1B.1 aminoacylation ribozyme variant]", 8.88],
  ["GUUCACCUAAGUCAUCGGGUG [Fam2.2 aminoacylation ribozyme variant]", 7.87],
  ["CUACACUUCUAGCAAUCGGUC [Fam1B.1 aminoacylation ribozyme variant]", 0.565],
  ["AGUACCAUGGUCAUCGAGUGA [Fam2.1 aminoacylation ribozyme variant]", 8.32],
  ["CUACUCCACACAAUCGGUCUG [Fam1A.1 aminoacylation ribozyme variant]", 0.9],
  ["CUACUUUAAACAAUCGGUCGG [Fam1A.1 aminoacylation ribozyme variant]", 0.769],
  ["AAUUUUGCUAAUAGUCGUAAG [Fam3.1 aminoacylation ribozyme variant]", 4.02],
  ["AAGUAUGCUAAUAGUCGCAAA [Fam3.1 aminoacylation ribozyme variant]", 1.7],
  ["CCACACCUCAAGGAAUCGGUC [Fam1B.1 aminoacylation ribozyme variant]", 1.32],
  ["ACUCACCUAGGUCAUAGGGUG [Fam2.2 aminoacylation ribozyme variant]", 1.58],
  ["AUUCACUUACGUCAUCGGGUG [Fam2.2 aminoacylation ribozyme variant]", 5.63],
  ["UCUACCCUGGUCAUCGAGUGA [Fam2.1 aminoacylation ribozyme variant]", 12.6],
  ["AUUCCCCUAAGUCAUCGGGUG [Fam2.2 aminoacylation ribozyme variant]", 62.2],
  ["AUUACCCGGGUCAUUGAGUGA [Fam2.1 aminoacylation ribozyme variant]", 10.8],
  ["AUUCCCCUAGGUUAUCGGGUG [Fam2.2 aminoacylation ribozyme variant]", 20],
  ["AAGUUUGCUAAUCGUUGCAAG [Fam3.1 aminoacylation ribozyme variant]", 0.987],
  ["AAGUUUGCUAAUACUCGCAAA [Fam3.1 aminoacylation ribozyme variant]", 1.71],
  ["AUUCACCCCGGUCAUCGGGUG [Fam2.2 aminoacylation ribozyme variant]", 5.88],
  ["CUACUUCAAACAAUCAGUCAG [Fam1A.1 aminoacylation ribozyme variant]", 2.43],
  ["AAGUUUGCUUAUACUCGCAAG [Fam3.1 aminoacylation ribozyme variant]", 0.554],
  ["AUUACCCUCGUUAUCGAGUGA [Fam2.1 aminoacylation ribozyme variant]", 17],
  ["CUUACCCUCGUCAUCGAGUGA [Fam2.1 aminoacylation ribozyme variant]", 3.21]
]}

###

tested on: biotinyl-Leu-oxazolone; assay: self-aminoacylation, catalytic enhancement (BLO) (fold over background); higher = more active; k-Seq, kA / k0A0; sequences stand for … in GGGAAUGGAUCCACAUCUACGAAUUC…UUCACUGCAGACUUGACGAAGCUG
Fewer inactive variants are shown than the library holds.
Listed below: self-aminoacylation values for each entry.
readout type: self-aminoacylation

{"columns": ["macromolecule sequence", "readout type", "numeric readout"],
 "data": [
  ["ACGACCCUGGUCAUCGAGUGA [Fam2.1 aminoacylation ribozyme variant]", "self-aminoacylation", 6.52],
  ["AUUCACCUGCGUCAUCGGGUG [Fam2.2 aminoacylation ribozyme variant]", "self-aminoacylation", 10.6],
  ["AAGUUUGCUAAUAGUGGCAUG [Fam3.1 aminoacylation ribozyme variant]", "self-aminoacylation", 0.754],
  ["CUACUUGAAAGAAUCGGUCUG [Fam1A.1 aminoacylation ribozyme variant]", "self-aminoacylation", 0.693],
  ["AUUACCGUGGUCAUGGAGUGA [Fam2.1 aminoacylation ribozyme variant]", "self-aminoacylation", 3.43],
  ["AUUACCAUGGUCAUCGAGUCA [Fam2.1 aminoacylation ribozyme variant]", "self-aminoacylation", 0.823],
  ["GUUACCCUGGUCAUCGAGUUA [Fam2.1 aminoacylation ribozyme variant]", "self-aminoacylation", 11.1],
  ["AAGGUUGCUAAUAAUCGCAAG [Fam3.1 aminoacylation ribozyme variant]", "self-aminoacylation", 1.19],
  ["CUACUUCAAACAAUGGGUCAG [Fam1A.1 aminoacylation ribozyme variant]", "self-aminoacylation", 0.651],
  ["AUUACCAUGGUCAUCGUGUGA [Fam2.1 aminoacylation ribozyme variant]", "self-aminoacylation", 4.26],
  ["AAGUUUGCUAAUCGUUGCAAG [Fam3.1 aminoacylation ribozyme variant]", "self-aminoacylation", 0.77],
  ["AAGUCAGCUAAUAGUCGCAAG [Fam3.1 aminoacylation ribozyme variant]", "self-aminoacylation", 2.22],
  ["CCAGACUUCAAGCAAUCCGUC [Fam1B.1 aminoacylation ribozyme variant]", "self-aminoacylation", 1.45],
  ["CUACUUCAACCAAUCGGGCUG [Fam1A.1 aminoacylation ribozyme variant]", "self-aminoacylation", 1.68],
  ["AAGUUAGCUAAUAGCCGCAAG [Fam3.1 aminoacylation ribozyme variant]", "self-aminoacylation", 1.44],
  ["AAGUUUGCUAAUGGUCGGAAG [Fam3.1 aminoacylation ribozyme variant]", "self-aminoacylation", 0.849],
  ["AUUACCAUGGUCAUCAAGUGA [Fam2.1 aminoacylation ribozyme variant]", "self-aminoacylation", 4.04],
  ["AUUAACGUAGGUCAUCGGGUG [Fam2.2 aminoacylation ribozyme variant]", "self-aminoacylation", 3.84],
  ["AUUCACCUAGGUCAACGGGUC [Fam2.2 aminoacylation ribozyme variant]", "self-aminoacylation", 0.807],
  ["CUACCUCAAACAAGCGGUCUG [Fam1A.1 aminoacylation ribozyme variant]", "self-aminoacylation", 0.828],
  ["AUUCAGCUAGGUCAUCAGGUG [Fam2.2 aminoacylation ribozyme variant]", "self-aminoacylation", 2.39],
  ["AAGUUUACUAAUAGUCGCUAG [Fam3.1 aminoacylation ribozyme variant]", "self-aminoacylation", 1.26],
  ["UGUACCCUGGUCAUCGAGUGA [Fam2.1 aminoacylation ribozyme variant]", "self-aminoacylation", 7.2],
  ["AUUACCCUGGGCAUCGAGUCA [Fam2.1 aminoacylation ribozyme variant]", "self-aminoacylation", 0.72],
  ["CUUCAGCUAGGUCAUCGGGUG [Fam2.2 aminoacylation ribozyme variant]", "self-aminoacylation", 3.57],
  ["CUACUUCACAGAAUCGGUCUG [Fam1A.1 aminoacylation ribozyme variant]", "self-aminoacylation", 1.1],
  ["AAUUUUGCUAAUAGUCUCAAG [Fam3.1 aminoacylation ribozyme variant]", "self-aminoacylation", 1.19],
  ["AUACUUCAAACAAUCGUUCUG [Fam1A.1 aminoacylation ribozyme variant]", "self-aminoacylation", 0.706],
  ["AUUACACUGGUCAUCGAGUGC [Fam2.1 aminoacylation ribozyme variant]", "self-aminoacylation", 1.38],
  ["AUUCAGGUAGGUCAUCGGGUG [Fam2.2 aminoacylation ribozyme variant]", "self-aminoacylation", 5.83],
  ["CCACACUUCAAAGAAUCGGUC [Fam1B.1 aminoacylation ribozyme variant]", "self-aminoacylation", 1.17],
  ["AUUGACCUGGUCAUCGAGUGA [Fam2.1 aminoacylation ribozyme variant]", "self-aminoacylation", 7.86],
  ["AUUCACCUAGGUCAAGGGGUG [Fam2.2 aminoacylation ribozyme variant]", "self-aminoacylation", 1.41],
  ["AUUCACCAAGGUCAACGGGUG [Fam2.2 aminoacylation ribozyme variant]", "self-aminoacylation", 8.07],
  ["CCACACUGCAAGCACUCGGUC [Fam1B.1 aminoacylation ribozyme variant]", "self-aminoacylation", 1.39]
]}
